- experimental target: T1, PTH receptor on SaOS-2/B10 cells (UniProt Q03431 27-593)
- T1 sequence (looked up): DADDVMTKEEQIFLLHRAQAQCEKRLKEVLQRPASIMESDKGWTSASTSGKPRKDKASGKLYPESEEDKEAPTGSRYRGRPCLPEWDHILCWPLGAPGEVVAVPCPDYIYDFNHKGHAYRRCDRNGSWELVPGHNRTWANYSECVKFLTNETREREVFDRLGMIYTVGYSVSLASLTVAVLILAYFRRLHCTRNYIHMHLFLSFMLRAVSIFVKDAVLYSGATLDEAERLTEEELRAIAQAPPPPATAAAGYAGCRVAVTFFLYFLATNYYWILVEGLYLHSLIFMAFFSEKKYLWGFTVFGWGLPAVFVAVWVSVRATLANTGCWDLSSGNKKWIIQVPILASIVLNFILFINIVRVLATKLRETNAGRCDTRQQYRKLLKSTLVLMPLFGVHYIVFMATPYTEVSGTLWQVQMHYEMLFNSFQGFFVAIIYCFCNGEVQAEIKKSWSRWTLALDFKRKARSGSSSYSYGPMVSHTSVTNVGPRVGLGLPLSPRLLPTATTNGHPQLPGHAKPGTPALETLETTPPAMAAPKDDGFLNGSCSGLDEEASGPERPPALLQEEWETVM
- protocol details: cell-based or functional assay
No end group written: not given here.
quantity kind: EC50 (half maximal stimulation of adenylate cyclase) (nM)

Answered examples (4):
| binder | endpoint value |
| --- | --- |
| AVSEHQLLHDKGKSIQDLRRREFLEKLIEKIHTA-NH2 (Synthetic analog of human PTHrP(1-34), carboxamide at the C-terminus) [[Glu^22,25,29, Lys^26,30]hPTHrP(1-34)NH2] | 0.42 |
| SVSEIQLMHNLGKHLNSMERVELLEKLLEKLHNF-NH2 (Synthetic analog of human PTH(1-34), carboxamide at the C-terminus) [[Glu^25,29, Leu^23,27,31, Lys^30]hPTH(1-34)NH2] | 24 |
| SVSEIQLMHNLGKHLNSMERVELLRKLLQDLHNF-NH2 (Synthetic analog of human PTH(1-34), carboxamide at the C-terminus) [[Leu^23,27,31]hPTH(1-34)NH2] | 1.12 |
| SVSEIQLMHNLGKHLNSMERVEWLEKKLEKVHNF-NH2 (Synthetic analog of human PTH(1-34), carboxamide at the C-terminus) [[Glu^25,29, Lys^30]hPTH(1-34)NH2] | 25.5 |

[A] AVSEHQLLHDKGKSIQDLRRRFLLHHLLAELHTA-NH2 (Synthetic analog of human PTHrP(1-34), carboxamide at the C-terminus) [[Leu^23,28,31]hPTHrP(1-34)NH2]
[B] AVSEHQLLHDKGKSIQDLRRRELLEKLLELLHTA-NH2 (Synthetic analog of human PTHrP(1-34), carboxamide at the C-terminus) [[Glu^22,25,29, Leu^23,28,30,31, Lys^26]hPTHrP(1-34)NH2]
Qu. Record comparison, field EC50 (half maximal stimulation of adenylate cyclase): mark the lower of A and B . Respond using the label that marks the chosen record.
Ans. A
